Listed next: entries and their corresponding IC50.
- Procedure Summary: Inhibition of beta-hematin formation assessed as inhibition of hemozoin formation by UV spectrophotometry
- Type: physicochemical
Numeric only. Scale: mMequiv

Reference set (3 entries):
CN1CCN(C(=O)CCCNc2ccnc3cc(Cl)ccc23)CC1: 0.2023
CC(C)[C@H](CC(=O)N1CCN(C)CC1)Nc1ccnc2cc(Cl)ccc12: 0.2286
CN1CCN(C(=O)[C@H](CO)Nc2ccnc3cc(Cl)ccc23)CC1: 0.3604

API: the following record is the query input.
Summary for this compound, C[C@H](Nc1ccnc2cc(Cl)ccc12)C(=O)NCCCN(C)C : IC50 is 0.176
